- SYSTEM_UNDER_TEST: catalytic domain of human neutrophilic collagenase (MMP-8) (Homo sapiens, UniProt P22894)
- Construct: of the catalytic domain of human stromelysin (MMP-3) and neutrophilic collagenase (MMP-8)
- Sequence (P22894 100-262 limits assumed): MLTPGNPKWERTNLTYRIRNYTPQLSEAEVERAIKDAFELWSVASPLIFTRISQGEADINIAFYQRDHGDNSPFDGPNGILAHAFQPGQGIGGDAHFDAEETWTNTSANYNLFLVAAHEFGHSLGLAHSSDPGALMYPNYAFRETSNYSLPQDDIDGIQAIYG
- PROTOCOL_NOTES: Enzyme activity of the catalytic domain of neutrophilic collagenase (MMP-8), fluorogenic substrate
- EXPERIMENTAL_PARAMETERS: catalytic domain prepared as described by Ye et al., fluorescence 328/393 nm
OBSERVED_PROPERTY: IC50 (nM)

1. O=C(NO)C1C2CCCCC2CCN1S(=O)(=O)c1ccc(Oc2ccccc2)nc1 (centres unmarked) = 2.5
2. O=C(NO)[C@H]1[C@H]2CCCC[C@H]2CCN1S(=O)(=O)c1ccc(-c2ccc(Cl)cc2)cc1 (single isomer, unassigned) = 2.2

P: O=C(NO)C1C2CCCCC2CCN1S(=O)(=O)c1ccc(Oc2ccc(F)cc2)cc1 (centres unmarked)
Q: O=C(NO)[C@@H]1[C@@H]2CCCC[C@@H]2CCN1S(=O)(=O)c1ccc(-c2ccc(Cl)cc2)cc1 (single isomer, unassigned)
R: O=C(NO)C1C2CCCCC2CCN1S(=O)(=O)c1ccc(Oc2ccncc2)cc1 (centres unmarked)
Prompt: // smallest IC50 at index 0, largest at the end Reply with the labels, ordered as the question asks.
Response: P, R, Q

###

- SYSTEM_UNDER_TEST: catalytic domain of human collagenase-3 (MMP-13) (Homo sapiens, UniProt P45452)
- Construct: enzyme activity of the catalytic domain of human collagenase-3 (MMP-13)
- PROTOCOL_NOTES: Enzyme activity of the catalytic domain of human collagenase-3 (MMP-13), fluorogenic substrate
- EXPERIMENTAL_PARAMETERS: APMA-activated proenzyme, fluorescence 328/393 nm
- Method: c) Determining the enzyme activity of the catalytic domain of human collagenase-3 (MMP-13). Activation of the proenzyme: 2 parts by volume of proenzyme were incubated, at 37° C. for 1.5 hours, with 1 part by volume of APMA solution. […] The effect of the inhibitor was calculated as a percentage inhibition in accordance with the following formula: % inhibition=100−[(increase in extinction/minute in reaction 2)/(increase in extinction/minute in reaction 1)×100]. […]
OBSERVED_PROPERTY: IC50 (nM)

Recorded results for 3 compounds are shown here.
1. O=C(NO)[C@H]1[C@H]2CCCC[C@H]2CCN1S(=O)(=O)c1ccc(Oc2ccc(F)cc2)cc1 [Example 21] = 1.3
2. O=C(NO)C1C2CCCCC2CCN1S(=O)(=O)CCc1ccc(-c2ccc(Cl)cc2)cc1 (stereo not shown) [Example 7] = 7
3. O=C(NO)C1C2CCCCC2CCN1S(=O)(=O)c1ccc(-c2ccc(OC(F)(F)F)cc2)cc1 (stereo not shown) [Example 19] = 3

a: O=C(NO)C1C2CCCCC2CCN1S(=O)(=O)c1ccc(Oc2ccc(F)cc2)cc1 (stereo not shown) [Example 20]
b: O=C(NO)C1C2CCCCC2CCN1S(=O)(=O)c1ccc(-c2ccc(Cl)cc2)cc1 (stereo not shown) [Example 3]
Prompt: Consider entries a and b . Which has the numerically lower IC50? Return value: the label identifying the chosen record.
Response: a
(a: 2 nM, b: 3 nM)

I: O=C(NO)C1C2CCCCC2CCN1S(=O)(=O)c1ccc(Oc2ccc(OC(F)(F)F)cc2)cc1 (stereo not shown) [Example 23]
II: O=C(NO)[C@@H]1[C@@H]2CCCC[C@@H]2CCN1S(=O)(=O)c1ccc(-c2ccc(Cl)cc2)cc1 (single isomer, unassigned) [Example 15]
Prompt: Which has the higher IC50, I or II ? Return value: the label identifying the chosen record.
Response: II
(II: 2300 nM, I: 2.1 nM)

###

- SYSTEM_UNDER_TEST: catalytic domain of human gelatinase B (MMP-9) (Homo sapiens, UniProt P14780)
- Construct: enzyme activity of the catalytic domain of human gelatinase B (MMP-9); purchased Roche, Mannheim 1 758 896
- Sequence (P14780 107-707 limits assumed): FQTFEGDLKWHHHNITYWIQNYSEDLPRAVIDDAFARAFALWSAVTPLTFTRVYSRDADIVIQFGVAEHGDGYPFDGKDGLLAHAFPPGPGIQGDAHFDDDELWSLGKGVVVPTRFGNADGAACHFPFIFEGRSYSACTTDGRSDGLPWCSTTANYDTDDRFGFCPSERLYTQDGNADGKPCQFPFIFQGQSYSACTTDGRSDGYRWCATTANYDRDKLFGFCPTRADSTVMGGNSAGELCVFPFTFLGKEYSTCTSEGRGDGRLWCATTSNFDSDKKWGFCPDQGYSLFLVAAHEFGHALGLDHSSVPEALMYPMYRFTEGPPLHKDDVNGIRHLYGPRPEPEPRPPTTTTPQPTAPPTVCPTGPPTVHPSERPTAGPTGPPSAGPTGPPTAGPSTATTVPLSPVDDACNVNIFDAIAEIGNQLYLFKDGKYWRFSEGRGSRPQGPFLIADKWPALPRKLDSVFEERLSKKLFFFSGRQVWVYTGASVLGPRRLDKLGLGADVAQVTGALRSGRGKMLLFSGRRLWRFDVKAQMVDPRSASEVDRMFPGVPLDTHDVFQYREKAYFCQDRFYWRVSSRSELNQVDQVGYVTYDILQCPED
- PROTOCOL_NOTES: Enzyme activity of the catalytic domain of human gelatinase B (MMP-9), fluorogenic substrate
- Format: biochemical
- EXPERIMENTAL_PARAMETERS: APMA-activated proenzyme, fluorescence 328/393 nm
- Experimental: e) Determining the enzyme activity of the catalytic domain of human gelatinase B (MMP-9). […] Activation of the proenzyme: 2 parts by volume of proenzyme were incubated, at 37° C. for 4 hours, with 1 part by volume of APMA solution. […] The inhibitory effect was calculated as percentage inhibition in accordance with the following formula: % inhibition=100−[(increase in extinction/minute in reaction 2)/(increase in extinction/minute in reaction 1)×100]. […]
OBSERVED_PROPERTY: IC50 (nM)

1) O=C(NO)C1C2CCCCC2CCN1S(=O)(=O)CCc1ccc(-c2ccc(Cl)cc2)cc1 (centres unmarked) [Example 7] = 3

A: O=C(NO)[C@@H]1[C@@H]2CCCC[C@@H]2CCN1S(=O)(=O)c1ccc(-c2ccc(Cl)cc2)cc1 (single isomer, unassigned) [Example 15]
B: O=C(NO)C1C2CCCCC2CCN1S(=O)(=O)c1ccc(Oc2ccc(OC(F)(F)F)cc2)cc1 (centres unmarked) [Example 23]
C: O=C(NO)C1C2CCCCC2CCN1S(=O)(=O)c1ccc(Oc2ccncc2)cc1 (centres unmarked) [Example 9]
D: O=C(NO)[C@H]1[C@H]2CCCC[C@H]2CCN1S(=O)(=O)c1ccc(-c2ccc(Cl)cc2)cc1 (single isomer, unassigned) [Example 14]
Prompt: // smallest IC50 at index 0, largest at the end Reply with the labels, ordered as the question asks.
Response: B, D, C, A
(B: 2 nM, D: 3.5 nM, C: 12 nM, A: 4000 nM)

###

- SYSTEM_UNDER_TEST: catalytic domain of human gelatinase A (MMP-2) (Homo sapiens, UniProt P08253)
- Construct: enzyme activity of the catalytic domain of human gelatinase A (MMP-2)
- Sequence (P08253 110-465 limits assumed): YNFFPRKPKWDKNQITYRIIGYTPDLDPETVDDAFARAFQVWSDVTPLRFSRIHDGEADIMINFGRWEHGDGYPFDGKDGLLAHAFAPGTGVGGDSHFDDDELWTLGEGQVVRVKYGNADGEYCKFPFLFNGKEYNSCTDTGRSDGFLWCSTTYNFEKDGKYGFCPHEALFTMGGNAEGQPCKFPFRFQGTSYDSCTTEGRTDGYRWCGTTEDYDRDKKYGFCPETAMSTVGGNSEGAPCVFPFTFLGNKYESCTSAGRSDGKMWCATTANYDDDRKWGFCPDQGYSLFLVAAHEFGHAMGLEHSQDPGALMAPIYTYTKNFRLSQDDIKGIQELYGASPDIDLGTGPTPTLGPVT
- PROTOCOL_NOTES: Enzyme activity of the catalytic domain of human gelatinase A (MMP-2), fluorogenic substrate
- EXPERIMENTAL_PARAMETERS: APMA-activated proenzyme, fluorescence 328/393 nm
OBSERVED_PROPERTY: IC50 (nM)

1) O=C(NO)C1C2CCCCC2CCN1S(=O)(=O)c1ccc(Oc2ccccc2)nc1 (stereo not shown) = 2
2) O=C(NO)[C@H]1[C@H]2CCCC[C@H]2CCN1S(=O)(=O)c1ccc(-c2ccc(Cl)cc2)cc1 (single isomer, unassigned) = 2
3) O=C(NO)[C@@H]1[C@@H]2CCCC[C@@H]2CCN1S(=O)(=O)c1ccc(-c2ccc(Cl)cc2)cc1 (single isomer, unassigned) = 2300
4) O=C(NO)C1C2CCCCC2CCN1S(=O)(=O)c1ccc(Oc2ccc(F)cc2)cc1 (stereo not shown) = 2
5) N#Cc1ccc(Oc2ccc(S(=O)(=O)N3CCC4CCCCC4C3C(=O)NO)cc2)cc1 (stereo not shown) = 8

P: COc1ccc(Oc2ccc(S(=O)(=O)N3CCC4CCCCC4C3C(=O)NO)cc2)cc1 (stereo not shown)
Q: O=C(NO)C1C2CCCCC2CCN1S(=O)(=O)c1ccc(-c2ccc(OC(F)(F)F)cc2)cc1 (stereo not shown)
Prompt: Consider entries P and Q . Which has the numerically lower IC50? Return value: the label identifying the chosen record.
Response: P

P: O=C(NO)[C@H]1[C@H]2CCCC[C@H]2CCN1S(=O)(=O)c1ccc(Oc2ccc(F)cc2)cc1
Q: O=C(NO)C1C2CCCCC2CCN1S(=O)(=O)c1ccc(Oc2ccncc2)cc1 (stereo not shown)
R: O=C(NO)C1C2CCCCC2CCN1S(=O)(=O)c1ccc(-c2ccc(Cl)cc2)cc1 (stereo not shown)
Prompt: // smallest IC50 at index 0, largest at the end Reply with the labels, ordered as the question asks.
Response: P, Q, R
(P: 1.5 nM, Q: 20 nM, R: 30 nM)

###

- SYSTEM_UNDER_TEST: catalytic domain of human collagenase-1 (MMP-1) (Homo sapiens, UniProt P03956)
- Construct: enzyme activity of the catalytic domain of human collagenase-1 (MMP-1)
- Sequence (P03956 100-269 limits assumed): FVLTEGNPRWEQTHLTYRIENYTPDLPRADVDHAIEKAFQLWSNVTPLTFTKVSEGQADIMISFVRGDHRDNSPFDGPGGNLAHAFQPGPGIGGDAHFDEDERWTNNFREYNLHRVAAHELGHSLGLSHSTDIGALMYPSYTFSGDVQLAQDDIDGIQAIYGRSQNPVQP
- PROTOCOL_NOTES: Enzyme activity of the catalytic domain of human collagenase-1 (MMP-1), fluorogenic substrate
- EXPERIMENTAL_PARAMETERS: APMA-activated proenzyme, fluorescence 328/393 nm
pIC50: −log10 of the molar value.
OBSERVED_PROPERTY: pIC50

1) COc1ccc(Oc2ccc(S(=O)(=O)N3CCC4CCCCC4C3C(=O)NO)cc2)cc1 (stereo not shown) = 6.66

I: O=C(NO)C1C2CCCCC2CCN1S(=O)(=O)CCc1ccc(-c2ccc(Cl)cc2)cc1 (stereo not shown)
II: O=C(NO)C1C2CCCCC2CCN1S(=O)(=O)c1ccc(-c2ccc(OC(F)(F)F)cc2)cc1 (stereo not shown)
III: O=C(NO)C1C2CCCCC2CCN1S(=O)(=O)c1ccc(Oc2ccc(OCC(F)(F)F)cc2)cc1 (stereo not shown)
Prompt: Put the entries in order of pIC50, starting with the largest number. Reply with the labels, ordered as the question asks.
Response: III, I, II

Data provenance: patent US7205315B2
